Tested on: kochia
Test: Test A pre-/postemergence herbicide test
Type: in vivo, Kochia scoparia
Conditions: preemergence; 500 g ai/ha; 0 to 100 scale, 0 is no effect and 100 is complete control
This section presents compounds with their documented Plant response rating, Kochia values.
The response must contain the number and no unit.

compound	quantitativeReadout
O=C1NCC(c2cccc(OC(F)F)c2)C1C(=O)Nc1cccc(F)c1F (stereo not shown) [Compound 224]	90

### Prompt Could you share which Plant response rating, Kochia value was measured for CS(=O)(=O)c1ccccc1NC(=O)C1C(=O)NCC1c1cccc(C(F)(F)F)c1 (racemic) [Compound 160] ?
### Response 90

### Prompt Now the same for O=C1NCC(c2ccc(C(F)(F)F)cc2)C1C(=O)Nc1cccc(F)c1F (racemic) [Compound 202]
### Response 80

### Prompt Now the same for O=C1NCC(c2ccc(Cl)c(Cl)c2)C1C(=O)Nc1ccc(F)cc1F (racemic) [Compound 272]
### Response 20

###

Test system: wheat (winter wheat)
Test: Test C pre-/postemergence herbicide test
Assay type: in vivo, Triticum aestivum
Conditions: Preemergence, 31 g ai/ha; scale 0 to 100, 0 is no effect and 100 is complete control
This section presents compounds with their documented Wheat plant response rating values.
The response must contain the number and no unit.

### Prompt Requested read-out Wheat plant response rating, target or system wheat (winter wheat), entry O=C1NCC(c2cccc(OC(F)F)c2)C1C(=O)Nc1cccc(F)c1F (centres unmarked)
### Response 0

### Prompt Now the same for O=C1NCC(c2ccc(C(F)(F)F)cc2)C1C(=O)Nc1ccccc1F (centres unmarked)
### Response 10

### Prompt Now the same for O=C1NCC(c2ccc(Cl)cc2)C1C(=O)Nc1cccc(F)c1F (centres unmarked)
### Response 0

### Prompt Now the same for O=C1NCC(c2ccc(C(F)(F)F)cc2)C1C(=O)Nc1cccc(F)c1F (centres unmarked)
### Response 0

### Prompt Now the same for O=C1NCC(c2cccc(OC(F)(F)F)c2)C1C(=O)Nc1ccccc1F (centres unmarked)
### Response 0

###

This section presents compounds with their documented Plant response rating, Wheat values.
Tested on: wheat (winter wheat)
Assay: Test C pre-/postemergence herbicide test
Format: in vivo, Triticum aestivum
Settings: Preemergence, 62 g ai/ha; scale 0 to 100
The response must contain the number and no unit.

### Prompt Could you share which Plant response rating, Wheat value was measured for O=C1NCC(c2ccc(C(F)(F)F)cc2)C1C(=O)Nc1cccc(F)c1F (centres unmarked) ?
### Response 5

###

System: pigweed
Test: Test A pre-/postemergence herbicide test
Type: in vivo, Amaranthus retroflexus
Details: Postemergence, 125 g ai/ha; visual rating on 0 to 100 scale (0 no effect, 100 complete control), approx. 10 days
readoutType: Plant response rating, Pigweed
The response must contain the number and no unit.

molecule	systemUnderTest	readoutType	quantitativeReadout
CCN1CC(c2ccc(C(F)(F)F)cc2)C(C(=O)Nc2cccc(F)c2F)C1=O (stereo not shown) [Compound 336]	pigweed	Plant response rating, Pigweed	0

Please look at the following molecule next.
### Prompt Could you share which Plant response rating, Pigweed value was measured for O=C1NCC(c2ccc(SC(F)(F)F)cc2)C1C(=O)Nc1ccc(F)c(F)c1F (stereo not shown) [Compound 322] ?
### Response 0

###

Tested on: galium
Experiment: Test A postemergence herbicide test
Format: in vivo, Galium aparine
Conditions: 125 g ai/ha, 0 to 100 scale, 0 is no effect, 100 is complete control
readoutType: Plant response rating, Galium
The response must contain the number and no unit.

compound	Plant response rating, Galium
CN1CC(c2ccc(F)cc2)C(C(=O)Nc2ccccc2F)C1=O (stereo not drawn)	20

### Prompt Could you share which Plant response rating, Galium value was measured for O=C1NCC(c2cccc(S(F)(F)(F)(F)F)c2)C1C(=O)Nc1ccccc1F (racemic) ?
### Response 0

### Prompt Now the same for O=C1NCC(c2cccc(C(F)F)c2)C1C(=O)Nc1cccc(F)c1F (racemic)
### Response 50

### Prompt Now the same for CC(C)N1CC(c2ccc(F)cc2)C(C(=O)Nc2cccc(F)c2F)C1=O (stereo not drawn)
### Response 0

### Prompt Now the same for O=C1NCC(c2cccc(OC(F)F)c2)C1C(=O)Nc1ccccc1Br (stereo not drawn)
### Response 30

### Prompt Now the same for CCc1cccc(C2CNC(=O)C2C(=O)Nc2ccccc2F)c1 (racemic)
### Response 20

### Prompt Now the same for O=C1NCC(c2ccc(C(F)(F)F)cc2)C1C(=O)Nc1ccccc1F (stereo not drawn)
### Response 40

### Prompt Now the same for O=C1NCC(c2ccc(Cl)c(Cl)c2)C1C(=O)Nc1ccccc1Cl (racemic)
### Response 0

### Prompt Now the same for CCCN1CC(c2ccc(C(F)(F)F)cc2)C(C(=O)Nc2cccc(F)c2F)C1=O (stereo not drawn)
### Response 0

### Prompt Now the same for Cc1ccc(NC(=O)C2C(=O)NCC2c2cccc(C(F)(F)F)c2)cc1C(F)(F)F (racemic)
### Response 0

### Prompt Now the same for O=C1NCC(c2cccc(C(F)F)c2)C1C(=O)Nc1ccccc1F (racemic) [Compound 210]
### Response 30

### Prompt Now the same for O=C1NCC(c2ccc(F)cc2)C1C(=O)Nc1ccccc1F (stereo not drawn)
### Response 0

### Prompt Now the same for O=C1NCC(c2cccc(C(F)F)c2)C1C(=O)Nc1ccccc1F (racemic) [Compound 163]
### Response 20

### Prompt Now the same for Cc1ccccc1NC(=O)C1C(=O)NCC1c1ccc(OC(F)F)cc1 (stereo not drawn)
### Response 0

### Prompt Now the same for O=C1NCC(c2cccc(C(F)F)c2)C1C(=O)Nc1ccccc1C(F)(F)F (racemic)
### Response 50

###

Tested on: corn
Assay: Test A pre-/postemergence herbicide test
Format: in vivo, Zea mays
Conditions: Postemergence, 500 g ai/ha; 0 to 100 scale (0 no effect, 100 complete control)
Text: […]
This section presents molecules with their documented Plant response rating, Corn values.
The response must contain the number and no unit.

Some entries whose results are on file:
molecule	systemUnderTest	Plant response rating, Corn
O=C1NCC(c2cc(F)c(F)c(F)c2)C1C(=O)Nc1cccc(F)c1F (stereo not drawn)	corn	50
Cc1ccccc1NC(=O)C1C(=O)NCC1c1cccc(C(F)(F)F)c1 (racemic)	corn	80
CCN1CC(c2ccc(C(F)(F)F)cc2)C(C(=O)Nc2ccccc2F)C1=O (stereo not drawn)	corn	0
O=C1NCC(c2cccc(Cl)c2)C1C(=O)Nc1ccccc1F (racemic)	corn	30
O=C1NCC(c2cccc(Oc3ccccc3)c2)C1C(=O)Nc1ccc(F)cc1F (stereo not drawn)	corn	0
O=C1NCC(c2ccc3c(c2)OC(F)(F)O3)C1C(=O)Nc1ccccc1F (stereo not drawn)	corn	50

### Prompt Could you share which Plant response rating, Corn value was measured for O=C1NCC(c2ccc(Cl)c(Cl)c2)C1C(=O)Nc1ccccc1F (racemic) ?
### Response 0

### Prompt Now the same for O=C1NCC(c2cccc(I)c2)C1C(=O)Nc1cccc(F)c1F (stereo not drawn)
### Response 30

### Prompt Now the same for O=C1NCC(c2cccc(C(F)(F)F)c2)C1C(=O)Nc1cc(F)ccc1F (stereo not drawn)
### Response 0

###

Test system: sprangletop, Brdd.
Assay: Test F flood (paddy) test
Type: in vivo, Leptochloa fascicularis
Details: 500 g ai/ha, 21 d, scale 0-100
This section presents compounds with their documented Plant response rating, Sprangletop, Brdd. values.

compound	result
O=C1NC[C@H](c2cccc(C(F)(F)F)c2)[C@H]1C(=O)Nc1ccccc1F	100
CN1CC(c2ccc(F)c(F)c2)C(C(=O)Nc2cccc(F)c2F)C1=O (stereo not shown)	90
O=C1NC[C@H](c2cccc(C(F)(F)F)c2)[C@H]1C(=O)Nc1cccc(F)c1F	100

### Prompt Could you share which Plant response rating, Sprangletop, Brdd. value was measured for O=C1NCCC1C(=O)N(c1ccc(F)c(F)c1)c1ccccc1F (stereo not shown) ?
### Response 85

###

This section presents compounds with their documented Plant response rating, Ragweed values.
Test system: ragweed
Assay: Test A pre-/postemergence herbicide test
Type: in vivo, Ambrosia elatior
Conditions: Postemergence, 125 g ai/ha; visual rating on 0 to 100 scale (0 no effect, 100 complete control), approx. 10 days
The response must contain the number and no unit.

compound	systemUnderTest	Plant response rating, Ragweed
O=C1NCC(c2cccc(-n3ccc(C(F)(F)F)n3)c2)C1C(=O)Nc1cccc(F)c1F (stereo not drawn)	ragweed	0
O=C1NCC(c2cccc(C(F)(F)F)c2)C1C(=O)Nc1ccc(F)c(F)c1F (stereo not drawn)	ragweed	0
O=C1NCC(c2ccc(Br)c(Br)c2)C1C(=O)Nc1ccccc1Cl (stereo not drawn)	ragweed	0
O=C1NCC(c2cnn(CC(F)(F)F)c2)C1C(=O)Nc1ccccc1C(F)(F)F (stereo not drawn)	ragweed	0
CN1CC(c2ccc(F)c(F)c2)C(C(=O)Nc2cccc(F)c2F)C1=O (stereo not drawn)	ragweed	20
CC(C)N1CC(c2ccc(F)cc2)C(C(=O)Nc2cccc(F)c2F)C1=O (stereo not drawn)	ragweed	0

### Prompt Could you share which Plant response rating, Ragweed value was measured for O=C1NCC(c2ccc(SC(F)(F)F)cc2)C1C(=O)Nc1ccccc1F (stereo not drawn) ?
### Response 0

### Prompt Now the same for O=C1NCC(c2ccc(Cl)o2)C1C(=O)Nc1cccc(F)c1F (stereo not drawn)
### Response 0

### Prompt Now the same for CCN1CC(c2ccc(C(F)(F)F)cc2)C(C(=O)Nc2ccccc2F)C1=O (stereo not drawn)
### Response 0

### Prompt Now the same for CSc1cccc(C2CNC(=O)C2C(=O)Nc2cccc(F)c2F)c1 (stereo not drawn)
### Response 0

### Prompt Now the same for O=C1NCC(c2ccc(Cl)c(Cl)c2)C1C(=O)Nc1ccc(F)cc1F (racemic)
### Response 40

### Prompt Now the same for CC(C)c1cccc(C2CNC(=O)C2C(=O)Nc2ccccc2C(F)(F)F)c1 (stereo not drawn)
### Response 0
